# assayed_target: Cytochrome P450 1A2 (Homo sapiens)
# Sequence (P05177 whole entry): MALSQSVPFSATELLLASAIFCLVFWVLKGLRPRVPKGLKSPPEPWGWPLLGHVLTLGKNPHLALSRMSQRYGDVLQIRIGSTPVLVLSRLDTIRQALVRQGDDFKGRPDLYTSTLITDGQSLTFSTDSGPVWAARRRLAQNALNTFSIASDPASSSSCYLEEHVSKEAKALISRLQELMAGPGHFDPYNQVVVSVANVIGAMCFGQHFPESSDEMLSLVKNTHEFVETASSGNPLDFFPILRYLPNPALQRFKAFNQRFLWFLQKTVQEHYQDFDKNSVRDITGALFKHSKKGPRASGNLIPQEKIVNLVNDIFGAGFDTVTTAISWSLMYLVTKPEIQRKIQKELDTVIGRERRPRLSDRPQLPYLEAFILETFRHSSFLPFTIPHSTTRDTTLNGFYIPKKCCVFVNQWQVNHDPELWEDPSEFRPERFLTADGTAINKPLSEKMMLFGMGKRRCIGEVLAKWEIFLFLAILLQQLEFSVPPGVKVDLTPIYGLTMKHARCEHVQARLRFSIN
# experimental_protocol: Inhibition of CYP1A2 (unknown origin) by luciferase reporter assay in presence of NADPH regeneration system
Property: pIC50; scope: individual compounds
Scale note: pIC50 = -log10(concentration in M).

Solved entries:
Cc1nc(-c2nnc3n2CCN(C(=O)c2ccc(-c4cccs4)cc2)[C@@H]3C)cs1
4.59
Cc1cccc(-c2nnc3n2CCN(C(=O)c2ccc(-c4cccs4)cc2)[C@@H]3C)n1
4.24
C[C@@H]1c2nnc(-c3csc(-c4ccccc4)n3)n2CCN1C(=O)c1ccc(F)cc1
4.60
O=C(c1ccc(F)cc1)N1CCn2c(nnc2-c2cccc(C(F)(F)F)n2)C1
4.68

Here is another compound to look at.
Query string: Specify pIC50 for "Cc1noc(-c2nnc3n2CCN(C(=O)c2ccc(-c4cccs4)cc2)[C@@H]3C)n1" and stop.
Result string: 4.49

* * *

# assayed_target: Cytochrome P450 2C19 (Homo sapiens, UniProt P33261)
# Sequence (P33261 whole entry): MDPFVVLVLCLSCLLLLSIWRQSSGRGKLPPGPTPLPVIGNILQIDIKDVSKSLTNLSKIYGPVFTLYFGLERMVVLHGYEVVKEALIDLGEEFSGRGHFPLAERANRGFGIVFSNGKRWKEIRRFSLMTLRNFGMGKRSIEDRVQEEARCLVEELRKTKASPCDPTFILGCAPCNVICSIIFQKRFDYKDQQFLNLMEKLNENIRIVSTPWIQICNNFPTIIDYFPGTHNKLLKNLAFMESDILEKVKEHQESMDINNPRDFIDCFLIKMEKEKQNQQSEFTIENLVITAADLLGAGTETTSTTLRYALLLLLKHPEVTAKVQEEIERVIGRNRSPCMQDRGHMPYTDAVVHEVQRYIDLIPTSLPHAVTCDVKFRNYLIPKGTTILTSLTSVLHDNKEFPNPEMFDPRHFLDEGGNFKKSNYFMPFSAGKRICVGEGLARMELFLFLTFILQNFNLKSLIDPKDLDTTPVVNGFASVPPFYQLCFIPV
# experimental_protocol: Inhibition of CYP2C19 (unknown origin) by luciferase reporter assay in presence of NADPH regeneration system
Output True for records whose IC50 is lower than 20 µM, False for records at or above 20 µM.

Consider the worked cases shown below.
C[C@@H]1c2nnc(-c3csc(-c4ccc(F)cc4F)n3)n2CCN1C(=O)c1ccc(-c2cccs2)cc1
True
C[C@@H]1c2nnc(-c3csc(C(F)(F)F)n3)n2CCN1C(=O)c1ccc(-c2cccs2)cc1
True
CC(C)c1nc(-c2nnc3n2CCN(C(=O)c2ccc(-c4cccs4)cc2)[C@@H]3C)cs1
True
Cc1csc(-c2nnc3n2CCN(C(=O)c2ccc(-c4cccs4)cc2)[C@@H]3C)n1
True
Cc1cccc(-c2nnc3n2CCN(C(=O)c2ccc(-c4cccs4)cc2)[C@@H]3C)n1
False

Let us examine a further case.
Query string: Threshold test, IC50 < 20 µM: "Cc1nc(-c2nnc3n2CCN(C(=O)c2ccc(-c4cccs4)cc2)C3)cs1"
Result string: True

* * *

# assayed_target: Cytochrome P450 2C9 (Homo sapiens, UniProt P11712)
# Sequence (P11712 whole entry): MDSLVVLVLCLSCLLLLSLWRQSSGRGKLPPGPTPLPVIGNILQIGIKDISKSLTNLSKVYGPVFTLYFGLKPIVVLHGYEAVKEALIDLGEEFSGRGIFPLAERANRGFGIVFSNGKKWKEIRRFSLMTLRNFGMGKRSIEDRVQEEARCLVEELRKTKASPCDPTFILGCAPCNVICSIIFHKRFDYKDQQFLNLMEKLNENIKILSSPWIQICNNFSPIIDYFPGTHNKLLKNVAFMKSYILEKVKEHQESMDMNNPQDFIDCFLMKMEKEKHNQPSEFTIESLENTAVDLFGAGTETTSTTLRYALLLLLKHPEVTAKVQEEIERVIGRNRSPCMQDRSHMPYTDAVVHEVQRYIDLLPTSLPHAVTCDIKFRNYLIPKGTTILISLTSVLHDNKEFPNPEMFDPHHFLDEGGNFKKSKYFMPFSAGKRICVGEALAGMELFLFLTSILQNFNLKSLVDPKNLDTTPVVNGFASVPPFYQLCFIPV
# experimental_protocol: Inhibition of CYP2C9 (unknown origin) by luciferase reporter assay in presence of NADPH regeneration system
pIC50: −log10 of the molar value.
Label rule, in plain words: pIC50 of 5 and up is t, under 5 is f.

Consider the worked cases shown below.
C[C@@H]1c2nnc(-c3csc(-c4ccc(F)cc4F)n3)n2CCN1C(=O)c1ccc(-c2cccs2)cc1
t
O=C(c1ccc(F)cc1)N1CCn2c(nnc2-c2ccccn2)C1
f
N#CC(c1ccccn1)c1ccnc(N2CCN(C(=O)c3ccc(F)cc3)CC2)n1 (centres undefined)
t
Cc1nc(-c2nnc3n2CCN(C(=O)c2ccc(-c4cccs4)cc2)C3)cs1
f
CC(C)c1nc(-c2nnc3n2CCN(C(=O)c2ccc(-c4cccs4)cc2)[C@@H]3C)cs1
t

Query string: Is pIC50 for "O=C(c1ccc(F)cc1)N1CCn2c(nnc2-c2cccc(C(F)(F)F)n2)C1" at or above 5?
Result string: f

Query string: Is pIC50 for "Cc1cncc(-c2nnc3n2CCN(C(=O)c2ccc(-c4cccs4)cc2)[C@@H]3C)n1" at or above 5?
Result string: f

Query string: Is pIC50 for "Cc1nc(-c2nnc3n2CCN(C(=O)c2ccc(-c4cccs4)cc2)[C@@H]3C)cs1" at or above 5?
Result string: f

Query string: Is pIC50 for "C[C@@H]1c2nnc(-c3csc(-c4ccccc4)n3)n2CCN1C(=O)c1ccc(F)cc1" at or above 5?
Result string: f

* * *

# experimental_protocol: Fraction unbound in rat plasma at 5 uM after 4 hrs by equilibrium dialysis method
# Format: ADME, cell-free
measured_attribute: fraction unbound at 4 h, 5 µM
Give a plain numeric answer without units written out.

Cc1noc(-c2nnc3n2CCN(C(=O)c2ccc(-c4cccs4)cc2)[C@@H]3C)n1
0.108

Query string: Specify fraction unbound at 4 h, 5 µM for "C[C@@H]1c2nnc(-c3csc(-c4ccc(F)cc4F)n3)n2CCN1C(=O)c1ccc(-c2cccs2)cc1" and stop.
Result string: 0.0008

Query string: Specify fraction unbound at 4 h, 5 µM for CC(=O)N(C)C1(c2ccccc2)CCN(CCC[C@]2(c3ccc(Cl)c(Cl)c3)CCCN(C(=O)c3ccccc3)C2)CC1 [OSANETANT] and stop.
Result string: 0.006

Query string: Specify fraction unbound at 4 h, 5 µM for "Cc1nc(-c2nnc3n2CCN(C(=O)c2ccc(-c4cccs4)cc2)[C@@H]3C)cs1" and stop.
Result string: 0.055

Query string: Specify fraction unbound at 4 h, 5 µM for CC[C@H](NC(=O)c1c(O)c(-c2ccccc2)nc2ccccc12)c1ccccc1 [TALNETANT] and stop.
Result string: 0.0003

Query string: Specify fraction unbound at 4 h, 5 µM for "CC(C)c1nc(-c2nnc3n2CCN(C(=O)c2ccc(-c4cccs4)cc2)[C@@H]3C)co1" and stop.
Result string: 0.036

* * *

Target chain: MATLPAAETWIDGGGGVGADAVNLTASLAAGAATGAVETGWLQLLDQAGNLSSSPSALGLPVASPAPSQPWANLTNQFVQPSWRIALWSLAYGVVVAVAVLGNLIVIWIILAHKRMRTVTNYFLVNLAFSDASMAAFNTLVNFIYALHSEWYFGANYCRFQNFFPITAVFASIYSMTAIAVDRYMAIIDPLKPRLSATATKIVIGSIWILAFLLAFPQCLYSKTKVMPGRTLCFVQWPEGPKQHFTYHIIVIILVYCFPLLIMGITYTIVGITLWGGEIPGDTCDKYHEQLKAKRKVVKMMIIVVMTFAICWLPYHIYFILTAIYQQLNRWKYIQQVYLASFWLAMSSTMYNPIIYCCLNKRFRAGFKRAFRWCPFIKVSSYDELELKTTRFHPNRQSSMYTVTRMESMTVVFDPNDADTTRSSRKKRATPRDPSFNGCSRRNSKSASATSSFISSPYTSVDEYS
Output true for records whose IC50 is lower than 80 nM, false for records at or above 80 nM.

COc1ccccc1C(=O)N1CCn2c(nnc2-c2ccccn2)C1
false
C[C@@H]1c2nnc(-c3csc(-c4ccc(F)cc4F)n3)n2CCN1C(=O)c1ccc(-c2cccs2)cc1
true
O=C(c1ccc(F)cc1)N1CCn2c(nnc2-c2ccccn2)C1
false
Cc1cncc(-c2nnc3n2CCN(C(=O)c2ccc(-c4cccs4)cc2)[C@@H]3C)n1
true
O=C(c1ccccc1F)N1CCn2c(nnc2-c2ccccn2)C1
false
Cc1ccc(-c2nnc3n2CCN(C(=O)c2ccc(F)cc2)C3)nc1
false
CC(C)c1nc(-c2nnc3n2CCN(C(=O)c2ccc(-c4cccs4)cc2)[C@@H]3C)cs1
true
O=C(c1cccc(F)c1)N1CCn2c(nnc2-c2ccccn2)C1
false

Let us examine a further case.
Query string: Threshold test, IC50 < 80 nM: "O=C(c1ccc(-c2ccc(Cl)cc2)cc1)N1CCn2c(nnc2-c2ccccn2)C1"
Result string: false

* * *

# experimental_protocol: Apparent permeability across apical to basolateral side in human Caco2 cells in presence of 0.1% bovine serum albumin
# condition_info: Caco-2
measured_attribute: Papp A→B

Solved entries:
CC(C)c1nc(-c2nnc3n2CCN(C(=O)c2ccc(-c4cccs4)cc2)[C@@H]3C)co1
46.4 ×10⁻⁶ cm/s
Cc1noc(-c2nnc3n2CCN(C(=O)c2ccc(-c4cccs4)cc2)[C@@H]3C)n1
57.4 ×10⁻⁶ cm/s
CC(C)NCC(O)COc1cccc2ccccc12 (stereo not given)
≥ 45 ×10⁻⁶ cm/s
CC[C@H](NC(=O)c1c(O)c(-c2ccccc2)nc2ccccc12)c1ccccc1
87.2 ×10⁻⁶ cm/s

Here is another compound to look at.
Query string: Specify Papp A→B for "Cc1nc(-c2nnc3n2CCN(C(=O)c2ccc(-c4cccs4)cc2)[C@@H]3C)cs1" and stop.
Result string: 48.2 ×10⁻⁶ cm/s

* * *

# experimental_protocol: in vivo
# condition_info: Sprague-Dawley, rat, po, 3 mg/kg
Label rule, in plain words: bioavailability of 50% and up is True, under 50% is False.

Consider the worked cases shown below.
C[C@@H]1c2nnc(-c3csc(-c4ccc(F)cc4F)n3)n2CCN1C(=O)c1ccc(-c2cccs2)cc1
False
CC[C@H](NC(=O)c1c(O)c(-c2ccccc2)nc2ccccc12)c1ccccc1
False
O=C(c1ccc(F)cc1)N1CCn2c(nnc2-c2ccccn2)C1
True

Let us examine a further case.
Query string: Is bioavailability for "Cc1noc(-c2nnc3n2CCN(C(=O)c2ccc(-c4cccs4)cc2)[C@@H]3C)n1" at or above 50%?
Result string: True

Data provenance: ChEMBL document CHEMBL3421625
